- STUDY TARGET: Proto-oncogene tyrosine-protein kinase ROS (Homo sapiens, UniProt P08922)
- Sequence (P08922 whole entry): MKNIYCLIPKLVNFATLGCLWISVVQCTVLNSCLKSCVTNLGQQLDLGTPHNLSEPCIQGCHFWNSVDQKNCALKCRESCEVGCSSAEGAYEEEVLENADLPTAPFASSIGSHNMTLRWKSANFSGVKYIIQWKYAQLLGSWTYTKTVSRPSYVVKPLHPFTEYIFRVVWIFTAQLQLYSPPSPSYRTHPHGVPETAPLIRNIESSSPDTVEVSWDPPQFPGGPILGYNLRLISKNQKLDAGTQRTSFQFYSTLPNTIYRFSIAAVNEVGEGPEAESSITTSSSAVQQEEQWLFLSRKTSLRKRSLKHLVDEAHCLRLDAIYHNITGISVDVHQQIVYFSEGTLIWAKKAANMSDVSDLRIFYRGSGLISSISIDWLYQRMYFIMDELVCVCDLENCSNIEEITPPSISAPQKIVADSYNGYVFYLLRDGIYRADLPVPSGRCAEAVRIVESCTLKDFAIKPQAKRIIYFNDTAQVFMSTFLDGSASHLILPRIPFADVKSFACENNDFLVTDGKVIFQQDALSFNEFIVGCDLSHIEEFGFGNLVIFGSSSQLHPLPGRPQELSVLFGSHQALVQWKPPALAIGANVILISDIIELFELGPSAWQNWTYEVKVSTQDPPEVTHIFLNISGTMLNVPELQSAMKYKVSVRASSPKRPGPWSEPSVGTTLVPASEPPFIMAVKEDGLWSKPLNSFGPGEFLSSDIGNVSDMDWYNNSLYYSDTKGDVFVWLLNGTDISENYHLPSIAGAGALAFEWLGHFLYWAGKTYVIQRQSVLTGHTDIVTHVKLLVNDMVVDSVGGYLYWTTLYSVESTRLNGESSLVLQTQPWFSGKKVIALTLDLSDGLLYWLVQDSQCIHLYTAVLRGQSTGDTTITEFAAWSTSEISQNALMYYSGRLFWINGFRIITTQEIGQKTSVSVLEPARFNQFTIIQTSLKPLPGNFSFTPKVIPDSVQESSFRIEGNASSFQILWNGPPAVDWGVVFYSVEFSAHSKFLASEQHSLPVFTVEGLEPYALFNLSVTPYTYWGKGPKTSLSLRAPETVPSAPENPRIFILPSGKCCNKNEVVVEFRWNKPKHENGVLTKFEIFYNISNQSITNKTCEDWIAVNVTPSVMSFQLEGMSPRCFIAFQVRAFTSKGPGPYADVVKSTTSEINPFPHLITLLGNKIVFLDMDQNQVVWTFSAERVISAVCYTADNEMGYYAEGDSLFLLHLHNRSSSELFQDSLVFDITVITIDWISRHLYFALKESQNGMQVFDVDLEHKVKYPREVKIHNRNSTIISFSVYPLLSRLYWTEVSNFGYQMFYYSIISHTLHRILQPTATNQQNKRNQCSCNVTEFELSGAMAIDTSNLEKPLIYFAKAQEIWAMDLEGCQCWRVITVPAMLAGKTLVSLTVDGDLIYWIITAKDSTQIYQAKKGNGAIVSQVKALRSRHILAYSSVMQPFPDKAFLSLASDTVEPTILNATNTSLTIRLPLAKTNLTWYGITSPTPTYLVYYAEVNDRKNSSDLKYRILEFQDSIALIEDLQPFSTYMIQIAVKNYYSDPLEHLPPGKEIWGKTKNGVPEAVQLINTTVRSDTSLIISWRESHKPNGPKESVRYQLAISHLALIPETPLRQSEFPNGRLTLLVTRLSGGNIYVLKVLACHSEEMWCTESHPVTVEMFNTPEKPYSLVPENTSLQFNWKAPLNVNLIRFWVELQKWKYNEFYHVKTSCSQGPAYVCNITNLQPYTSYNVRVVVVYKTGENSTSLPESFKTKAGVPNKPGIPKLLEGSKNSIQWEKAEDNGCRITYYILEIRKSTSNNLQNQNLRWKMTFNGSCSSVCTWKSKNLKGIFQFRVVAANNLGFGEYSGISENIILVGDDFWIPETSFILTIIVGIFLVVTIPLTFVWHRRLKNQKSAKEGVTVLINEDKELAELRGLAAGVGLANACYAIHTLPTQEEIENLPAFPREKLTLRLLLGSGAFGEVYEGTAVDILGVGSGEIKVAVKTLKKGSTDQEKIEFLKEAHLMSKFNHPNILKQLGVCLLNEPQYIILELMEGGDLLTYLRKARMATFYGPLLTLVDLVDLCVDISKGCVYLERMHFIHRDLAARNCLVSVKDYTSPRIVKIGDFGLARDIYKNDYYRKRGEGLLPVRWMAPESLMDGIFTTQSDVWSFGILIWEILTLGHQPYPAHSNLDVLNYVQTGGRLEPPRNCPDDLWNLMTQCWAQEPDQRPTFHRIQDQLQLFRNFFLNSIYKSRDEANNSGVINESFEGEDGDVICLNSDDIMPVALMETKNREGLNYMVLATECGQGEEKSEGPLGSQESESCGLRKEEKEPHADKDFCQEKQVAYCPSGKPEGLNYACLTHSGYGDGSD
EXPERIMENTAL READOUT: pIC50
Give bare numbers, as −log10 of the molar value.

The recorded pIC50 for entry "CN1CCN(c2ccc(Nc3ncc(Cl)c(NC[C@H]4CCCO4)n3)cc2)CC1" equals 6.91

---

- STUDY TARGET: UniProt O60674
EXPERIMENTAL READOUT: pIC50
Answers are plain numbers, as −log10 of the molar value.

The recorded pIC50 for entry "CN1CCN(c2ccc(Nc3ncc(Cl)c(NC[C@H]4CCCO4)n3)cc2)CC1" equals 8.22

---

- STUDY TARGET: Activated CDC42 kinase 1 (Homo sapiens)
- EXPERIMENTAL PROTOCOL: Inhibition of ACK1 kinase (unknown origin)
- Sequence (Q07912 whole entry): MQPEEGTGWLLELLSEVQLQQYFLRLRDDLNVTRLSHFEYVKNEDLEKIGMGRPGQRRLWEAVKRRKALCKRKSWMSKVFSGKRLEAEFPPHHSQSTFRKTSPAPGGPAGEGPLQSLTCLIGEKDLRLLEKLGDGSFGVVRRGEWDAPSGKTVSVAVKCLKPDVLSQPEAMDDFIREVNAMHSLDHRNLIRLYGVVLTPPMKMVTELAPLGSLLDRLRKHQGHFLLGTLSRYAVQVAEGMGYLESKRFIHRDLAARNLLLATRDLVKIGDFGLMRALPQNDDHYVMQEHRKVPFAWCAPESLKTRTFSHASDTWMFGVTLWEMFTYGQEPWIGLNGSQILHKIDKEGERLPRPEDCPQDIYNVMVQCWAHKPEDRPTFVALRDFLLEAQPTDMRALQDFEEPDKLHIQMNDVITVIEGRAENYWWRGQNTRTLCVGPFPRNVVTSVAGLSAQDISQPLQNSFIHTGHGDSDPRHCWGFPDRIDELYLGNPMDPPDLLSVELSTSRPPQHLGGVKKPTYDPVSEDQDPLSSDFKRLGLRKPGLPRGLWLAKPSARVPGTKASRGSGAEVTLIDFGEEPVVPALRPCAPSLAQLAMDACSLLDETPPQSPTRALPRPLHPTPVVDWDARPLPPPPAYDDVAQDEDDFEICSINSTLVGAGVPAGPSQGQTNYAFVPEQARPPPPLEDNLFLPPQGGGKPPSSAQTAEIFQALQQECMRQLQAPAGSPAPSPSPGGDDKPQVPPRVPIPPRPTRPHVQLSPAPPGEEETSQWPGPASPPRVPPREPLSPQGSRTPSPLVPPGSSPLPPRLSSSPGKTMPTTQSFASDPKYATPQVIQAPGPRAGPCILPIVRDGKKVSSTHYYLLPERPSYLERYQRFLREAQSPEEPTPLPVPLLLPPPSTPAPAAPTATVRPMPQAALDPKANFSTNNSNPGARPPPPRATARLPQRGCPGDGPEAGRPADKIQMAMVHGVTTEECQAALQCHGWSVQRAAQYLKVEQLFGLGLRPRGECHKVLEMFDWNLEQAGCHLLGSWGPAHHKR
Exercise: for every item that follows, state its recorded IC50.
Please report the result as a number followed by the unit.

| STRUCTURE AS SMILES | STUDY TARGET | IC50 |
| --- | --- | --- |
| COC(C)(C)CCn1nc(Nc2c(C)cccc2C)c2cnc(Nc3ccccc3)nc21 | Activated CDC42 kinase 1 (Homo sapiens) | 2 nM |

Proceed to the following item.
The recorded IC50 for entry "CN1CCN(c2ccc(Nc3ncc(Cl)c(NC[C@@H]4CCCO4)n3)cc2)CC1" equals 82 nM

---

Exercise: for every item that follows, state its recorded inhibition.
- STUDY TARGET: Activated CDC42 kinase 1 (Homo sapiens)
- EXPERIMENTAL PROTOCOL: Inhibition of human ACK1 kinase activity using biotinylated ATGRYYAMKIL - AKT peptide substrate assessed as phosphorylation at 10 uM by ELISA
- Format: single protein
- Sequence (Q07912 whole entry, looked up): as the sequence (Q07912 whole entry) above

Hey, quick one: what's inhibition for each of these?
1. O=C(Nc1c(F)cccc1Cl)c1cnc(Nc2ccc(N3CCOCC3)cc2)nc1NCC1CCCO1 (racemic)
2. O=C(Nc1c(F)cccc1Cl)c1cnc(Nc2ccc(N3CCNCC3)cc2)nc1NCC1CCCO1 (racemic)
3. O=C(O)CCc1ccc(Nc2ncc(Br)c(NCC3CCCO3)n2)cc1 (centres undefined)

Reply |
1: 82%; 2: 89.5%; 3: 74.5%

---

- STUDY TARGET: Non-receptor tyrosine-protein kinase TYK2 (Homo sapiens)
EXPERIMENTAL READOUT: IC50 (nM)
Give bare numbers, in nM.

The recorded IC50 for entry "CN1CCN(c2ccc(Nc3ncc(Cl)c(NC[C@H]4CCCO4)n3)cc2)CC1" equals 5

---

- STUDY TARGET: Tyrosine-protein kinase Lck (Homo sapiens)
- Sequence (P06239 whole entry): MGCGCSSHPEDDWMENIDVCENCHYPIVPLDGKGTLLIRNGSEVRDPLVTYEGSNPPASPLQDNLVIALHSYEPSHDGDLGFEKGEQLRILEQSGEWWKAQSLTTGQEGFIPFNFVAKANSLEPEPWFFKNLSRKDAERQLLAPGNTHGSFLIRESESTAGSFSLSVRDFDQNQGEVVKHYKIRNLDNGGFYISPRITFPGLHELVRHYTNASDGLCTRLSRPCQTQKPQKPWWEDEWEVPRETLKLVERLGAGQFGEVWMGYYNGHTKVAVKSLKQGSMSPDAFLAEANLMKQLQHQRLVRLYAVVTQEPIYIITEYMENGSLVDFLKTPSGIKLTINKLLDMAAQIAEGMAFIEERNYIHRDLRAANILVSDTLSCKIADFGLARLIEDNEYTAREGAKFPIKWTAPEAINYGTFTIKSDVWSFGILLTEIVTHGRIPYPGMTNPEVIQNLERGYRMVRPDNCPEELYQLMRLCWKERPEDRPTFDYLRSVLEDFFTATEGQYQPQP
EXPERIMENTAL READOUT: pKi
Give bare numbers, as −log10 of the molar value.

The recorded pKi for entry "CN(C)CCOc1ccc(-c2oc3ncnc(NCC4SCCS4)c3c2-c2ccccc2)cc1" equals 6.86

---

- STUDY TARGET: Activated CDC42 kinase 1 (Homo sapiens)
- EXPERIMENTAL PROTOCOL: Inhibition of human ACK1 kinase activity using biotinylated ATGRYYAMKIL - AKT peptide substrate assessed as phosphorylation at 10 uM by ELISA
- Format: single protein
Exercise: for every item that follows, state its recorded inhibition.
Answers are plain numbers, in %.

Field: example entries. Status: answers known.
| MOLECULE | inhibition [%] |
| --- | --- |
| O=C(O)Cc1ccc(Nc2ncc(Cl)c(NCC3CCCO3)n2)cc1 (configuration not stated) | 76.5 |
| Oc1ccc(Nc2ncc(Cl)c(NCC3CCCO3)n2)cc1 (configuration not stated) | 65 |
| Brc1cnc(Nc2ccc(N3CCOCC3)cc2)nc1NCC1CCCO1 (racemic) | 89 |
| Clc1cnc(Nc2ccc(C3CCNCC3)cc2)nc1NCC1CCCO1 (racemic) | 79.5 |
| CN(C)CCNC(=O)CCc1ccc(Nc2ncc(Cl)c(NCC3CCCO3)n2)cc1 (configuration not stated) | 68 |

Hey, quick one: what's inhibition for each of these?
1. O=C(Nc1c(F)cccc1Cl)c1cnc(Nc2ccc(C3CCNCC3)cc2)nc1NCC1CCCO1 (racemic)
2. O=C(O)Cc1ccc(Nc2ncc(Br)c(NCC3CCCO3)n2)cc1 (configuration not stated)
3. Clc1cnc(Nc2ccc(N3CCNCC3)cc2)nc1NCC1CCCO1 (racemic)
4. O=C(O)C1CCN(c2ccc(Nc3ncc(Cl)c(NCC4CCCO4)n3)cc2)CC1 (racemic)
5. O=C(O)CCc1ccc(Nc2ncc(Cl)c(NCC3CCCO3)n2)cc1 (configuration not stated)
6. COc1ccc(Nc2ncc(Br)c(NCC3CCCO3)n2)cc1 (configuration not stated)
7. O=C(O)CCCc1ccc(Nc2ncc(Cl)c(NCC3CCCO3)n2)cc1 (configuration not stated)

Reply |
1. 97
2. 61
3. 82
4. 93
5. 74
6. 67
7. 60

Hey, quick one: what's inhibition for each of these?
1. CN1CCN(c2ccc(Nc3ncc(C(=O)Nc4c(F)cccc4Cl)c(NCC4CCCO4)n3)cc2)CC1 (configuration not stated)
2. COc1ccc(Nc2ncc(C(=O)Nc3c(F)cccc3Cl)c(NCC3CCCO3)n2)cc1 (racemic)
3. O=C(Nc1c(F)cccc1Cl)c1cnc(Nc2ccc(O)c(F)c2)nc1NCC1CCCO1 (configuration not stated)
4. O=C(O)C1CCN(c2ccc(Nc3ncc(Br)c(NCC4CCCO4)n3)cc2)CC1 (racemic)
5. Oc1ccc(Nc2ncc(Br)c(NCC3CCCO3)n2)cc1F (configuration not stated)

Reply |
1. 97
2. 68
3. 66
4. 85
5. 76

---

- STUDY TARGET: UniProt:P06239
EXPERIMENTAL READOUT: pIC50
Give bare numbers, as −log10 of the molar value.

Assay UniProt:P06239, sample "CN1CCN(c2ccc(Nc3ncc(Cl)c(NC[C@H]4CCCO4)n3)cc2)CC1" , pIC50 read: 6.87

---

- STUDY TARGET: Tyrosine-protein kinase ABL1 (Homo sapiens)
- Sequence (P00519 whole entry): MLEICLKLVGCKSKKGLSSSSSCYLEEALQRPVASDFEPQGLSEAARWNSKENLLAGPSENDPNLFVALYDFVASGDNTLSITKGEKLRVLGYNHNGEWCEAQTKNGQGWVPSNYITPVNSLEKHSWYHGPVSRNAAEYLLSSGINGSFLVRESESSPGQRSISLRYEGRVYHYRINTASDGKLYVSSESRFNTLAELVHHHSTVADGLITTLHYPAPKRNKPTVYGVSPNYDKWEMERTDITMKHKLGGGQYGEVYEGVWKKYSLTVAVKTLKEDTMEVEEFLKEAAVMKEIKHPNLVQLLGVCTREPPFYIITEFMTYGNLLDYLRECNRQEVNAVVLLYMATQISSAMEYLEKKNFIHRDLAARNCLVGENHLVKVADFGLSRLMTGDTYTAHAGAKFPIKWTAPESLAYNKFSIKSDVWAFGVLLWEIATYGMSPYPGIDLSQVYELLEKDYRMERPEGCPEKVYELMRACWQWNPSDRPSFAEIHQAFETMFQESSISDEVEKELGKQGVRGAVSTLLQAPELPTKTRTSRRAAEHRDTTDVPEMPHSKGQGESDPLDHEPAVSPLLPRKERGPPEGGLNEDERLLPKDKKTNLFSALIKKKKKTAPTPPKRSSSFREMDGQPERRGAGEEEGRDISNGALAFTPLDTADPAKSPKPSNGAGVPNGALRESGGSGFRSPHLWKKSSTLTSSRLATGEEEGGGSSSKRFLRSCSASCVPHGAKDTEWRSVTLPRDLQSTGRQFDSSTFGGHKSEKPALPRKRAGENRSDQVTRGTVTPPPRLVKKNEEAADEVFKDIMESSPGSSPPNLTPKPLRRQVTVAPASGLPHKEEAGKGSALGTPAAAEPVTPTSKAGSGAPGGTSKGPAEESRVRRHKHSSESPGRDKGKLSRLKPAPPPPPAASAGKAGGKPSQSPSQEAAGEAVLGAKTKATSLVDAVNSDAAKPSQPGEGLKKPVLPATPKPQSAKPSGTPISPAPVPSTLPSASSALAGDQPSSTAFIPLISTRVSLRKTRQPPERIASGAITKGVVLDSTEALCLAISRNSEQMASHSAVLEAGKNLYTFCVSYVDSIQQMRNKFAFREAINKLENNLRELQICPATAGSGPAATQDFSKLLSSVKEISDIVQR
EXPERIMENTAL READOUT: pIC50
Answers are plain numbers, as −log10 of the molar value.

The recorded pIC50 for entry "CN1CCN(c2ccc(Nc3ncc(Cl)c(NC[C@H]4CCCO4)n3)cc2)CC1" equals 6.69

---

- STUDY TARGET: Activated CDC42 kinase 1 (Homo sapiens)
- EXPERIMENTAL PROTOCOL: Inhibition of human ACK1 kinase activity using biotinylated ATGRYYAMKIL - AKT peptide substrate assessed as phosphorylation at 10 uM by ELISA
- Format: single protein
EXPERIMENTAL READOUT: inhibition (%)
One number for each entry, in %.

Hey, quick one: what's inhibition for each of these?
1. O=C(Nc1c(F)cccc1Cl)c1cnc(Nc2ccc(O)cc2)nc1NCC1CCCO1 (racemic)
2. Brc1cnc(Nc2ccc(C3CCNCC3)cc2)nc1NCC1CCCO1 (racemic)

Reply |
1: 85; 2: 84.5

---

Exercise: for every item that follows, state its recorded inhibition.
- STUDY TARGET: Activated CDC42 kinase 1 (Homo sapiens, UniProt Q07912)
- EXPERIMENTAL PROTOCOL: Inhibition of human ACK1 kinase activity using biotinylated ATGRYYAMKIL - AKT peptide substrate assessed as phosphorylation at 10 uM by ELISA
- Assay type: single protein
Give bare numbers, in %.

| COMPOUND | EXPERIMENTAL READOUT | OUTPUT UNIT | ASSAY RESULT |
| --- | --- | --- | --- |
| CN1CCN(c2ccc(Nc3nccc(NCC4CCCO4)n3)cc2)CC1 (centres undefined) | inhibition | % | 16 |

Hey, quick one: what's inhibition for each of these?
1. CN1CCN(c2ccc(Nc3ncc(Cl)c(NCC4CCCO4)n3)cc2)CC1 (racemic)
2. CN1CCN(c2ccc(Nc3ncc(Br)c(NCC4CCCO4)n3)cc2)CC1 (centres undefined)

Reply |
[90.5, 93]

The recorded inhibition for entry O=C(O)CCC(=O)N1CCN(c2ccc(Nc3ncc(Br)c(NCC4CCCO4)n3)cc2)CC1 (centres undefined) equals 92
